# TESTED_SYSTEM: UniProt:P32245
# Sequence (P32245 whole entry): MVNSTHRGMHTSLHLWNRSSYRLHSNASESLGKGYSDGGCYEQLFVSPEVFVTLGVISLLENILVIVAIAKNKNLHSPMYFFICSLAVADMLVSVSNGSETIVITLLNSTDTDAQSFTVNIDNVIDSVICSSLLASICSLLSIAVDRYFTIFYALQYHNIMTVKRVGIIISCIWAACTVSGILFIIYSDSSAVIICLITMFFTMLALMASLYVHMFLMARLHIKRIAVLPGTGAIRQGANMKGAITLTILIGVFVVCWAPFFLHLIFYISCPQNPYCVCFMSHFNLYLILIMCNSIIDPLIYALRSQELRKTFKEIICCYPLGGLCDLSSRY
# Assay type: cell membranes, HEK293, Membrane
# EXPERIMENTAL_CONDITIONS: read-out: Ki; further: in other assays of this panel Not Active means under 50% inhibition at 10 µM
PROPERTY_LABEL: Ki

Record request: Ki value, item CC/C(=C(\c1ccccc1)c1ccc(OCCN(C)C)cc1)c1ccccc1
29.3 µM

----------
# TESTED_SYSTEM: Receptor-type tyrosine-protein phosphatase C (Homo sapiens); further: in other assays of this panel Not Active means under 50% inhibition at 10 µM;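 further: inhibition of CD45 enzyme activity measured using DiFMUP as substrate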
# Sequence (P08575 whole entry): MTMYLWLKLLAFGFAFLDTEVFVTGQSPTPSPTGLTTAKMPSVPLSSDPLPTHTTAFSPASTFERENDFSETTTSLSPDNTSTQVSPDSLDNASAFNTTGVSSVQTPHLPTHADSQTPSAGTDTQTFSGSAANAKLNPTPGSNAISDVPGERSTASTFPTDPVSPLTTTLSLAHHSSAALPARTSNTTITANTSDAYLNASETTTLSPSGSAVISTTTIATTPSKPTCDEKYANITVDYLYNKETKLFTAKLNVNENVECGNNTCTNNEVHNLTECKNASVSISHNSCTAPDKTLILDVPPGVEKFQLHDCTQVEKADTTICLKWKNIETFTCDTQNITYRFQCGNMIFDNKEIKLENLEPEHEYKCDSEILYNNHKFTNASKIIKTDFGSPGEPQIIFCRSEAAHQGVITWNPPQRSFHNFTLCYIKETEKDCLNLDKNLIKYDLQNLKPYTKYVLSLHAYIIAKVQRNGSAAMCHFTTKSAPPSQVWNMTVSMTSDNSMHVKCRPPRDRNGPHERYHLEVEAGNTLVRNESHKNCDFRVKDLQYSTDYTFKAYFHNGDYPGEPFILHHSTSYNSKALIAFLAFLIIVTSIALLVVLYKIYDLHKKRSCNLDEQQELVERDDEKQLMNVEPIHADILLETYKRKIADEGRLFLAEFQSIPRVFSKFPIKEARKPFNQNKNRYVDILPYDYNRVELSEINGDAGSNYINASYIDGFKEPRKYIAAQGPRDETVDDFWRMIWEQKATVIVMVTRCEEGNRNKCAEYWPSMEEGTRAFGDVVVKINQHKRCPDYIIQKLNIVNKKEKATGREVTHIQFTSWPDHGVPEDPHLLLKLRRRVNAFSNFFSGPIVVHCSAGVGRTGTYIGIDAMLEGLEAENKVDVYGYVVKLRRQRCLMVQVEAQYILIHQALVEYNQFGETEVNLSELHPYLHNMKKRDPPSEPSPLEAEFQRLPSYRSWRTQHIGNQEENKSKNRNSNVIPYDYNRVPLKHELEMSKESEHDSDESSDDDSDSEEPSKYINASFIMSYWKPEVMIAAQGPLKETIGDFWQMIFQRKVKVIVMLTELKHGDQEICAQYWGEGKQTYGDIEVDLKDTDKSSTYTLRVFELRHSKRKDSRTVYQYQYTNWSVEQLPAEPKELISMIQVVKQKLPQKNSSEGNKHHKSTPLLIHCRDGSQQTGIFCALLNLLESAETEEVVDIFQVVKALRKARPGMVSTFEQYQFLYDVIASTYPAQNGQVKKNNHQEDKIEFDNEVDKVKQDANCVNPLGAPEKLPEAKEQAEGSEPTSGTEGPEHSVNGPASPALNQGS
# Parameters: species or system Escherichia coli
PROPERTY_LABEL: IC50

For orientation, consider the following solved cases.
COMPOUND | IC50
N[C@@H]1[C@H]2CN(c3nc4c(cc3F)c(=O)c(C(=O)O)cn4-c3ccc(F)cc3F)C[C@@H]12 | Not Active
C[C@@H]1CN(c2c(F)c(N)c3c(=O)c(C(=O)O)cn(C4CC4)c3c2F)C[C@H](C)N1 | Not Active
c1ccc2c(c1)c1cccc3ccc4cccc2c4c31 [BENZO[E]PYRENE] | Not Active
CCOc1ccc(NC(C)=O)cc1 | Not Active
COc1nc(C)nc(Cl)c1NC1=NCCN1 | Not Active
CCCCc1nc(Cl)c(CO)n1Cc1ccc(-c2ccccc2-c2nnn[nH]2)cc1 | Not Active

Parameter requested: IC50. Apply to each item below.
1. Nc1nc2nc[nH]c2c(=S)[nH]1
2. CN1CCN(CCCN2c3ccccc3Sc3ccc(Cl)cc32)CC1

["Not Active", "Not Active"]

Requested field: IC50. Item: Cc1ccc(/N=C/N(C)/C=N/c2ccc(C)cc2C)c(C)c1
Not Active
